Test system: SNB-19 CNS
Experiment: NCI tumour cell line growth inhibition, 48 h
attribute-measured: TGI

Value of measured TGI for the entry `CC1=C/C(=N/N2C(=O)/C(=C/c3ccc(Cl)cc3)N=C2c2ccccc2)CC(C)(C)C1` : > 100 µM

Value of measured TGI for the entry `CCC(=O)OCc1ccc2oc(=O)c(C(=O)Oc3cncc(Cl)c3)cc2c1` : > 100 µM

Value of measured TGI for the entry N#CC1C(=O)Nc2sc(C(=O)c3ccc(Br)cc3)c(N)c2C12CCCCC2 (stereo not given) : > 100 µM

Value of measured TGI for the entry O=[N+]([O-])c1ccc(NC2OCC(O)C(O)C2O)cc1 (stereo not given) : > 100 µM

Value of measured TGI for the entry `OCCSCCCSCCO` : > 100 µM

Value of measured TGI for the entry `O=C1c2cccnc2-c2nc(/C=C/c3ccccc3)cc3c2c1nc1ccccc13` : 6.13 µM

Value of measured TGI for the entry `C=CCN1C(=O)/C(=C/c2ccc(C)cc2)N=C1SC/C=C/C` : > 100 µM

Value of measured TGI for the entry Oc1ccc2c(c1)OCC(O)(c1ccccc1O)C2 (stereo not given) : > 100 µM

Value of measured TGI for the entry `O=c1ccc2ccccc2o1` : > 100 µM

Value of measured TGI for the entry `CCc1cccc(CC)c1NC(=S)NC(=O)c1ccc(Br)cc1` : > 100 µM

Value of measured TGI for the entry O=c1nc2n(cc1/C=C\Br)C1CC(O)C(CO2)O1 (stereo not given) : > 100 µM

Value of measured TGI for the entry C=C(C)C1Cc2c(cc(O)c3c(=O)c4ccccc4n(C)c23)O1 (stereo not given) : 34.5 µM

Value of measured TGI for the entry COC(=O)C(NC(=O)CNC(=O)CSc1nnc(COc2ccc(Cl)cc2)n1-c1ccccc1)C(C)C (stereo not given) : 50.1 µM

Value of measured TGI for the entry `Cc1cc(S(=O)(=O)Nc2nc3ccsc3c(=O)n2Cc2ccco2)c(S)cc1Cl` : > 100 µM

Value of measured TGI for the entry O=[N+]([O-])CC(SCc1ccccc1)c1ccc2c(c1)OCO2 (stereo not given) : 28 µM

* * *

Test system: SF-539 CNS
Experiment: NCI tumour cell line growth inhibition, 48 h
attribute-measured: TGI (µM)
Field format: number, assumed µM, no unit text.

Record `O=C1Oc2ccccc2C(=O)/C1=C/N1C(=O)/C(=C/c2ccc([N+](=O)[O-])cc2)SC1=S` ; system SF-539 CNS; TGI = 45

Record `COc1cc2c3c(n(CCN)c(=O)c2cc1OC)-c1cc2c(cc1C3=O)OCO2` ; system SF-539 CNS; TGI = 2.74

Record O=S(=O)(NC(=S)Nc1ccccc1)c1ccc(N2N=C3c4ccccc4CC3C2c2cccs2)cc1 (stereo not drawn) ; system SF-539 CNS; TGI = 46.3

Record `CCOC(=O)c1c(C)n(Cc2ccccc2)c2c1cc(O)c1[nH]c3c(c12)CCCC3` ; system SF-539 CNS; TGI = 5.54

Record `COc1ccc(/C=C(/C(=O)N2CCCC2)c2cc(OC)c(OC)c(OC)c2)cc1N` ; system SF-539 CNS; TGI = 6.75

Record CC(CN)[C@@H]1CC[C@]2(CO)CC[C@]3(C)[C@H](CC[C@@H]4[C@@]5(C)CCC(NCCO)C(C)(C)[C@@H]5CC[C@]43C)[C@@H]12 (stereo partly drawn) ; system SF-539 CNS; TGI = 3.02

Record `CC1=C(C2=C(C)C(=O)C(=O)c3cc(C)ccc32)c2ccc(C)cc2C(=O)C1=O` ; system SF-539 CNS; TGI = 0.346

Record `COc1cc2cc(Oc3ccc(NC(=O)Nc4ccccc4)cc3)c(C)nc2cc1OCCN1CCCCC1` ; system SF-539 CNS; TGI = 10.3

Record `Cc1cccc2sc(NC(=O)c3cc([N+](=O)[O-])ccc3Cl)nc12` ; system SF-539 CNS; TGI = 6.25

Record `Cc1cc2c(cc1O)CC[C@@H]1[C@@H]2CC[C@]2(C)[C@@H](O)CC[C@@H]12` ; system SF-539 CNS; TGI = 19.8

Record `C=C(CN1CCN(c2cccc(C(F)(F)F)c2)CC1)c1ccc(C(=O)Nc2ccccc2N)cc1` ; system SF-539 CNS; TGI = 2.82

Record C/C=C(\C)C(=O)O[C@@H]1C(O)[C@H]2OC(COC(=O)CCC(=O)CCCCCC[C@H](CCCCC)O[C@@H]3OC(C)[C@H](OC(C)=O)C(O)[C@H]3O2)[C@H]1OC(=O)/C=C/c1ccccc1 (stereo partly drawn) ; system SF-539 CNS; TGI = 1.96

Record `CCOC(=O)/C=C1\SC(=Nc2ccc(C#N)cc2)N(CCN2C(=O)/C(=C/C(=O)OCC)SC2=Nc2ccc(C#N)cc2)C1=O` ; system SF-539 CNS; TGI = 12.8

Record C[n+]1c2ccccc2c(CNC(CCC(N)=O)C(=O)O)c2ccccc21 (stereo not drawn) ; system SF-539 CNS; TGI = 5.61

Record CS(=O)(=O)N1CCN(Cc2cc3nc(-c4cccc5[nH]ncc45)nc(N4CCOCC4)c3s2)CC1 (tested in a mixture with another compound) ; system SF-539 CNS; TGI = 0.108

Record `Cc1ccc(N=C2CSc3nnc(-c4csc5c4CCCC5)n3N2)cc1` ; system SF-539 CNS; TGI = 0.473

Record `C=C(CNCCc1ccc(O)cc1)[C@@H]1CC[C@]2(CO)CC[C@]3(C)[C@H](CC[C@@H]4[C@@]5(C)CCC(=O)C(C)(C)[C@@H]5CC[C@]43C)[C@@H]12` ; system SF-539 CNS; TGI = 3.17

Record `Cc1ccc(-c2ccc(Nc3c4ccccc4nc4ccccc34)cc2)cn1` ; system SF-539 CNS; TGI = 21.1
